biological target: UniProt Q9NR96; assay: TLR9 inhibition reporter assay (HEK-Blue SEAP); conditions: read-out: TLR9 IC50; HEK-Blue human TLR9 cells, ODN2006 5 nM;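 note: SEAP driven by an IFN-β minimal promoter with NF-κB and AP-1 sites, read after 22 h, compounds dosed 0.05 nM–50 µM, inhibition scaled between agonist plus DMSO and reference-inhibitor wells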
Sequence (Q9NR96 26-1032): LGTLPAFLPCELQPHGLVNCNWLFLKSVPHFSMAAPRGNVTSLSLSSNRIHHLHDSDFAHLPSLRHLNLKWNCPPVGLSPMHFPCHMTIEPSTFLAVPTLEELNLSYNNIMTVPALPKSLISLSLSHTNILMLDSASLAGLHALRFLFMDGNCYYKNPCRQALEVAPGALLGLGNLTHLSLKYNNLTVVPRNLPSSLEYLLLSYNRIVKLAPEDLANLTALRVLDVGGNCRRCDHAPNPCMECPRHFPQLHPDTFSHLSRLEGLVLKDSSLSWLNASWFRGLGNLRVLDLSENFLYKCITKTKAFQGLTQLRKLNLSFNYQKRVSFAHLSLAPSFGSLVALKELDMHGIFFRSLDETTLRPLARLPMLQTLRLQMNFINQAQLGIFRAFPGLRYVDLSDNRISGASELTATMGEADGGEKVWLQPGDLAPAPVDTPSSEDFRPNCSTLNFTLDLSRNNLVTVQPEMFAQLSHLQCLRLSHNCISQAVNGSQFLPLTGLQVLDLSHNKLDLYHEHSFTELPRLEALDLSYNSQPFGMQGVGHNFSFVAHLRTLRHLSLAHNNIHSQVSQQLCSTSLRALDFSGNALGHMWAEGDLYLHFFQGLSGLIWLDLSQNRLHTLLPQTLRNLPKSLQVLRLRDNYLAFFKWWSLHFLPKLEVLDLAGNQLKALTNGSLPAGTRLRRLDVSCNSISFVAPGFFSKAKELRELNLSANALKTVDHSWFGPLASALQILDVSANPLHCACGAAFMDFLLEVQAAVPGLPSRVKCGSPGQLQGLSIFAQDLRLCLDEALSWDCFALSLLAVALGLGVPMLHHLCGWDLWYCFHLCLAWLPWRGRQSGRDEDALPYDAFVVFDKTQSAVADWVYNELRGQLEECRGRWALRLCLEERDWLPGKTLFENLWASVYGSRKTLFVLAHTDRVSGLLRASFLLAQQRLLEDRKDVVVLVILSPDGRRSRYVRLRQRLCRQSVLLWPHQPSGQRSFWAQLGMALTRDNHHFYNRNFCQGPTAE
Property: log10 of IC50 (log10 of the value in µM)
Scale type: logarithmic (base 10). Underlying IC50 unit: µM.

Provide log10 of IC50, system UniProt Q9NR96, entry Cc1c(-c2[nH]c3ccc(N4C[C@H]5C[C@@H]4CN5)nc3c2C(C)C)cn2ncnc2c1C
0.49

Provide log10 of IC50, system UniProt Q9NR96, entry COc1cc(-c2[nH]c3ccc(N4CC5(CNC5)C4)nc3c2C(C)C)cn2ncnc12
-0.19

Provide log10 of IC50, system UniProt Q9NR96, entry CCN(C1CCC(c2ccc3[nH]c(-c4cn5ncnc5c(C)c4C)c(C(C)C)c3n2)CC1)C1COC1 (centres unmarked) [Example 1039]
0.49

Provide log10 of IC50, system UniProt Q9NR96, entry CCCN1CC2(C1)CN(c1ccc3[nH]c(-c4cn5ncnc5c(C)c4C)c(C(C)C)c3n1)C2
0.38

Provide log10 of IC50, system UniProt Q9NR96, entry Cc1c(-c2[nH]c3ccc(N4CCN(C(=O)C5CN(C)C5)CC4)nc3c2C(C)C)cn2ncnc2c1C
0.85

Next:
Provide log10 of IC50, system UniProt Q9NR96, entry Cc1c(-c2[nH]c3ccc(N4CCN(C(=O)CN(C)C(C)(C)C)[C@@H](C)C4)nc3c2C(C)C)cn2ncnc2c1C
1.17
